Consider the following molecules; for each one, report its IC50.
Biological target: GCGR (Homo sapiens, UniProt P47871)
Experiment: HTRF cAMP assay in primary human hepatocytes stimulated with recombinant glucagon
Assay type: cell-based
Design: endogenous in cells; host or cells: primary human hepatocytes

GCGR (Homo sapiens, UniProt P47871) assay, molecule CC(C)[C@H](Nc1ccc(C(=O)NCCC(=O)O)cn1)c1ccc(-c2nc3ccccc3s2)cc1 , recorded IC50 = 62 nM

GCGR (Homo sapiens, UniProt P47871) assay, molecule CCC(C)[C@H](Nc1ccc(C(=O)NCCC(=O)O)cc1)c1ccc(-c2nnc(-c3ccccc3)o2)cc1 (stereo partly shown) , recorded IC50 = 19 nM

GCGR (Homo sapiens, UniProt P47871) assay, molecule CCC(C)[C@H](Nc1ccc(C(=O)NCCC(=O)O)cc1)c1ccc(-c2noc(-c3ccccc3)n2)cc1 (stereo partly shown) , recorded IC50 = 15 nM

GCGR (Homo sapiens, UniProt P47871) assay, molecule CC(C)[C@H](Nc1ccc(C(=O)NCCC(=O)O)cn1)c1ccc(-c2nc3ccccc3o2)cc1 , recorded IC50 = 53 nM

---

Target: glucagon receptor (GCGR) (Homo sapiens)
Sequence (P47871 26-477, species assumed): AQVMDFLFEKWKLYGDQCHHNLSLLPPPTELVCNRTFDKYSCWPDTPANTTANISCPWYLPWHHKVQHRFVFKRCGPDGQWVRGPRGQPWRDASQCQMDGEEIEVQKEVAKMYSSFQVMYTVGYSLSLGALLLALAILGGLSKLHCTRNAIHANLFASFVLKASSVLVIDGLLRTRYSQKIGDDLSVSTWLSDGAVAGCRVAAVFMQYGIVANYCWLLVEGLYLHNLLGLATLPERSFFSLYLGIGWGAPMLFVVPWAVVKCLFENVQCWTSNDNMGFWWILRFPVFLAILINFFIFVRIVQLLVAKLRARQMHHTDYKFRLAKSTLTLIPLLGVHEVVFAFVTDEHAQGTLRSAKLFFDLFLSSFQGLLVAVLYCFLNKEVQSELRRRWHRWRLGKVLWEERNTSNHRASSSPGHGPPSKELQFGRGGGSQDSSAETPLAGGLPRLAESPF
Test: Glucagon cAMP inhibition assay (Cisbio cAMP Dynamic 2 HTRF)
Details: GCGR overexpressed CHO-K1 cells or human primary hepatocytes (not specified); glucagon at EC50
Strictly below 800 nM in IC50: satisfied. Otherwise: not satisfied.

Problem: Please state whether IC50 is below 800 nM for CCCC[C@@H](Nc1ccc(C(=O)NCCC(=O)OCC)cc1)c1ccc(-c2nnc(-c3ccccn3)o2)cc1
Result: not satisfied

Problem: Please state whether IC50 is below 800 nM for CCCC[C@H](Nc1ccc(C(=O)NCCC(=O)O)cc1)c1ccc(-c2nnc(-c3ccccn3)o2)cc1
Result: not satisfied

Problem: Please state whether IC50 is below 800 nM for CCCC(Nc1ccc(C(=O)NCCC(=O)O)cc1)c1ccc(-c2nnc(-c3ccccc3)o2)cc1 (stereo not drawn)
Result: not satisfied

Problem: Please state whether IC50 is below 800 nM for CCC(C)[C@H](Nc1ccc(C(=O)NCCC(=O)O)cc1)c1ccc(-c2noc(C(F)(F)F)n2)cc1 (stereo partly drawn)
Result: satisfied

Problem: Please state whether IC50 is below 800 nM for CCCC[C@H](Nc1ccc(C(=O)NCCC(=O)OCC)cc1)c1ccc(-c2noc(C(F)(F)F)n2)cc1
Result: satisfied

Problem: Please state whether IC50 is below 800 nM for CCCCC(Nc1ccc(C(=O)NCCC(=O)OCC)cc1)c1ccc(-c2nnc(C(F)(F)F)o2)cc1 (stereo not drawn)
Result: satisfied

Problem: Please state whether IC50 is below 800 nM for O=C(O)CCNC(=O)c1ccc(N[C@@H](c2ccc(-c3nc4ccccc4o3)cc2)C2CCCC2)cc1
Result: satisfied

Problem: Please state whether IC50 is below 800 nM for CCCCC(Nc1ccc(-c2nnc(-c3ccccc3)o2)cc1)c1ccc(C(=O)NCCC(=O)OCC)cc1 (stereo not drawn)
Result: not satisfied

Problem: Please state whether IC50 is below 800 nM for CC(C)[C@@H](Nc1ccc(-c2nnc(-c3ccccc3)o2)cc1)c1ccc(C(=O)NCCC(=O)O)cc1
Result: satisfied

Problem: Please state whether IC50 is below 800 nM for CCOC(=O)CCNC(=O)c1ccc(N[C@H](c2ccc(-c3nc(-c4ccccc4)no3)cc2)C(C)CC)cc1 (stereo partly drawn)
Result: satisfied

Problem: Please state whether IC50 is below 800 nM for CCOC(=O)CCNC(=O)c1ccc(N[C@H](c2ccc(-c3nnc(-c4ccccc4)o3)cc2)C(C)CC)cc1 (stereo partly drawn)
Result: satisfied

Problem: Please state whether IC50 is below 800 nM for CCC(C)C(Nc1ccc(-c2nnc(-c3ccc(F)cc3)o2)cc1)c1ccc(C(=O)NCCC(=O)O)cc1 (stereo not drawn)
Result: not satisfied

Problem: Please state whether IC50 is below 800 nM for CCOC(=O)CCNC(=O)c1ccc(C(Nc2ccc(-c3nnc(-c4ccc(F)cc4)o3)cc2)C(C)CC)cc1 (stereo not drawn)
Result: satisfied

Problem: Please state whether IC50 is below 800 nM for CCOC(=O)CCNC(=O)c1ccc(NC(c2ccc(-c3nnc(C(C)(C)C)o3)cc2)C(C)C)cc1 (stereo not drawn)
Result: satisfied

Problem: Please state whether IC50 is below 800 nM for CCOC(=O)CCNC(=O)c1ccc(NC(c2ccc(-c3noc(-c4cccs4)n3)cc2)C(C)C)cc1 (stereo not drawn)
Result: satisfied
